Readings of Ratio for the listed compounds
Tested on: Candida albicans
Assay: Ratio of Amphotericin B MIC to compound MIC for Candida albicans after 48 hrs by broth dilution technique
Type: functional
When you answer, write just the number.

Worked examples follow.
# query smiles, numeric value
rows = [
    ("Cn1cc([N+](=O)[O-])cc1C(=O)NNC(=O)NCc1ccco1", 2),
    ("Cn1cc([N+](=O)[O-])cc1C(=O)NNC(=S)Nc1ccccc1F", 4),
]

Request: Name the recorded Ratio of the compound listed here: `Cn1cc([N+](=O)[O-])cc1C(=O)NNC(=S)NCCc1ccccc1`
Response: 4

Request: Name the recorded Ratio of the compound listed here: `Cn1cc([N+](=O)[O-])cc1C(=O)NNC(=S)NC1CCCCC1`
Response: 4

Request: Name the recorded Ratio of the compound listed here: `C=[N+]([O-])c1cc(C(=O)NNC(=O)NCc2ccccc2)n(C)c1`
Response: 2

Request: Name the recorded Ratio of the compound listed here: `Cn1cc([N+](=O)[O-])cc1C(=O)NNC(=S)NCc1ccccc1`
Response: 2

Request: Name the recorded Ratio of the compound listed here: `Cn1cc([N+](=O)[O-])cc1C(=O)NNC(=O)Nc1ccc(Br)cc1`
Response: 2

Request: Name the recorded Ratio of the compound listed here: `O=C(NNC(=S)NCCc1ccccc1)c1cc([N+](=O)[O-])c[nH]1`
Response: 4

Request: Name the recorded Ratio of the compound listed here: `O=C(NNC(=S)Nc1ccc([N+](=O)[O-])cc1)c1cc([N+](=O)[O-])c[nH]1`
Response: 4

---

Tested on: Candida albicans
Assay: Antimicrobial activity against Candida albicans after 48 hrs by agar dilution method
Assay type: functional
metric: MIC
Report as: number unit

Worked examples follow.
# query smiles, MIC
data = [
    ("Cn1cc([N+](=O)[O-])cc1C(=O)NNC(=O)Nc1ccccc1", "1.56 µg/mL"),
    ("O=C(NNC(=S)NCCc1ccccc1)c1cc([N+](=O)[O-])c[nH]1", "3.12 µg/mL"),
    ("COc1ccc(OC)c(NC(=O)NNC(=O)c2cc([N+](=O)[O-])c[nH]2)c1", "3.12 µg/mL"),
    ("O=C(NNC(=S)Nc1ccc(F)cc1)c1cc([N+](=O)[O-])c[nH]1", "3.12 µg/mL"),
]

Request: Name the recorded MIC of the compound listed here: `COc1ccc(NC(=S)NNC(=O)c2cc([N+](=O)[O-])cn2C)cc1`
Response: 0.78 µg/mL

Request: Name the recorded MIC of the compound listed here: `O=C(NNC(=S)Nc1ccc([N+](=O)[O-])cc1)c1cc([N+](=O)[O-])c[nH]1`
Response: 3.12 µg/mL

Request: Name the recorded MIC of the compound listed here: `Cn1cc([N+](=O)[O-])cc1C(=O)NNC(=O)Nc1ccc(Cl)cc1`
Response: 1.56 µg/mL

Request: Name the recorded MIC of the compound listed here: `O=C(NCCc1ccccc1)NNC(=O)c1cc([N+](=O)[O-])c[nH]1`
Response: 3.12 µg/mL

Request: Name the recorded MIC of the compound listed here: `Cn1cc([N+](=O)[O-])cc1C(=O)NNC(=O)Nc1ccc([N+](=O)[O-])cc1`
Response: 1.56 µg/mL

Request: Name the recorded MIC of the compound listed here: `COc1ccc(NC(=S)NNC(=O)c2cc([N+](=O)[O-])c[nH]2)cc1`
Response: 3.12 µg/mL
